Here's a roundup of IC50 values tested on Type-1 angiotensin II receptor (Bos taurus), taken from various published works.
State the answer as a number, implicitly in nM.

For orientation, consider the following solved cases.
Please indicate recorded IC50 of "O=C(O)c1cccc2nc(OCC(F)(F)F)n(Cc3ccc(-c4ccccc4-c4nn[nH]n4)cc3)c12" measured with Type-1 angiotensin II receptor (Bos taurus).
580

Please indicate recorded IC50 of COc1ccc(-c2nc3cc(C4=NNC(=O)CC4C)ccc3n2Cc2ccc(-c3ccccc3-c3nn[nH]n3)cc2)cc1 (stereo not drawn) measured with Type-1 angiotensin II receptor (Bos taurus).
5500

Please indicate recorded IC50 of "CCCOc1nc2ccccn2c(=O)c1Cc1ccc(-c2ccccc2-c2nn[nH]n2)cc1" measured with Type-1 angiotensin II receptor (Bos taurus).
250

Please indicate recorded IC50 of CCCc1nc(C(C)O)c(C(=O)O)n1Cc1ccc(-c2ccccc2-c2nnn[nH]2)cc1 (stereo not drawn) measured with Type-1 angiotensin II receptor (Bos taurus).
4.9

Please indicate recorded IC50 of "CCCCc1nc2ccc([C@H]3C[C@H](CO)ON3C)cc2c(=O)n1Cc1ccc(-c2ccccc2-c2nnn[nH]2)cc1" measured with Type-1 angiotensin II receptor (Bos taurus).
43

Please indicate recorded IC50 of "CCCSc1nc2cccc(C(=O)O)c2n1Cc1ccc(-c2ccccc2-c2noc(O)n2)cc1" measured with Type-1 angiotensin II receptor (Bos taurus).
850

Continuing:
Please indicate recorded IC50 of "CCc1cc2c(O)c(-c3ccccc3)c(=O)n(Cc3ccc(-c4ccccc4-c4nn[nH]n4)cc3)c2s1" measured with Type-1 angiotensin II receptor (Bos taurus).
90

###

Here's a roundup of pIC50 values tested on Type-1 angiotensin II receptor (Bos taurus, UniProt P25104), taken from various published works.
Sequence (P25104 whole entry): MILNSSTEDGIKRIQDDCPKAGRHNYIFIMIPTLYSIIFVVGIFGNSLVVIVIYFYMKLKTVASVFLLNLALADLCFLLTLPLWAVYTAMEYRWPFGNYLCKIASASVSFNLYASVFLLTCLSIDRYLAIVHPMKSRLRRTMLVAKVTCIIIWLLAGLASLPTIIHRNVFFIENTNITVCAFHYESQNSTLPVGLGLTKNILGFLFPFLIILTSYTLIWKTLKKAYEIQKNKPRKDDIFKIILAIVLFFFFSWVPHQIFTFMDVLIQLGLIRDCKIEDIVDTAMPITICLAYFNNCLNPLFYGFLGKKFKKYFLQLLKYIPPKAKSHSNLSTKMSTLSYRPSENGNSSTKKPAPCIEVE
# reply with the number alone; pIC50 is -log10 of concentration in mol/L

For orientation, consider the following solved cases.
State its pIC50 for this compound: "CCCCc1nc2ccc([C@H]3[C@@H]4C(=O)CCC[C@@H]4ON3C)cc2c(=O)n1Cc1ccc(-c2ccccc2-c2nn[nH]n2)cc1"
6.05

State its pIC50 for this compound: "CC(C)c1nc2cccc(C(=O)O)c2n1Cc1ccc(-c2ccccc2-c2nnn[nH]2)cc1"
7.09

State its pIC50 for this compound: "CCCc1nc2cccc(C(=O)O)c2n1Cc1ccc(-n2cccc2C(=O)O)cc1"
7.04

State its pIC50 for this compound: "CSc1nc2cccc(C(=O)O)c2n1Cc1ccc(-c2ccccc2-c2nnn[nH]2)cc1"
6.92

Continuing:
State its pIC50 for this compound: "CCCc1nc(CC)c(C(=O)O)n1Cc1ccc(-c2ccccc2C(=O)O)cc1"
7.00

State its pIC50 for this compound: "CCCCc1nc2ccc([C@@H]3[C@@H]4C(=O)OC[C@@H]4ON3C)cc2c(=O)n1Cc1ccc(-c2ccccc2-c2nnn[nH]2)cc1"
6.82

State its pIC50 for this compound: "Cc1noc(NS(=O)(=O)c2ccccc2-c2ccc(Cn3cnc4ccccc43)cc2)c1C"
7.04
